Biological target: T1, SAS1B extracellular domain (aa 164-431) polypeptide (Homo sapiens, UniProt Q6HA08)
T1 construct: SAS1B extracellular domain (aa 164-431) polypeptide; made in house
T1 sequence (Q6HA08 164-431): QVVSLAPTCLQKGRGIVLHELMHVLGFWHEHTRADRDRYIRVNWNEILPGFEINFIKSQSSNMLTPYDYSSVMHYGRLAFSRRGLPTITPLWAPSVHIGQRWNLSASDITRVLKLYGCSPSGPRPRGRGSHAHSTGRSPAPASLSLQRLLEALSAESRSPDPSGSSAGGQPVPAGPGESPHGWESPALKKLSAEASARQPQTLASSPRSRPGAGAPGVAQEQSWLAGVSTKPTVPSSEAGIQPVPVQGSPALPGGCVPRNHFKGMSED
Experiment: Western blot with mammalian cell-expressed recombinant SAS1B, extracellular domain
Type: binding
Measured attribute: Reaction with SAS1B extracellular domain (aa 164-431) polypeptide

>>> observed_measurement("SB6: mouse anti-human SAS1B monoclonal antibody, IgG2b; VH SEQ ID NO:16, VL SEQ ID NO:18 (antibody, listed as Mus musculus, V domains shown) VH: EVQLQQSGPELVKPGSSVKISCKPSGYTFTDYNMVWMKQSHGKSLEWIGAINPNNGGTTYNQKFKGKATLTVDKSSSTAYMELRSLTSEDSAVYYCAPNWDWFAYWGQGTLVTVSA VL: DVLMTQIPLSLPVSLGDQASISCRSSQSILHSNGNTYLEWYLQKPGQSPKLLIYKVSNRFSGVPDRFSGSGSGTDFTLKISRVEAEDLGVYYCFQGSHVPFTFGSGTKLEIK")
"none of the them reacted"
>>> observed_measurement("SB3: mouse anti-human SAS1B monoclonal antibody, IgG2b; VH SEQ ID NO:14, VL SEQ ID NO:15 (antibody, listed as Mus musculus, V domains shown) VH: EVQLQQSGPELVKPGSSVKISCKASGYTFTDYNMVWVKQSHGKSLEWIGAVNPNNGGTSYNQKFKGKATLTVDKSSSTAYMELRSLTSEDSAVYYCVPNWDWFAYWGQGTLVTVSA VL: DVLMTQTPLSLPVSLGDQASISCRSSQSLVHSNGNTYLEWYLQKPGQSPNLLIYKVSNRFSGVPDRFSGSGSGTDFTLKISRVEAEDLGVYYCFQGSHVPFTFGSGTKLEIK")
"none of the them reacted"
